Recorded values, source ChEMBL document CHEMBL3885881.

Entries annotated with measured LEUKOCYTE COUNT
Species on record: Rattus norvegicus
experiment-summary: DrugMatrix - Regimen: Daily Repeat
Type: toxicity, organism-based, Sprague-Dawley
Set-up: regimen Daily Repeat, gender Male, age 6-8 weeks
condition-info: in vivo, po, 0 mg/kg, 72 h, tissue Blood, route oral GAVAGE, dose level Control, time 3 day, vehicle .5 % CMC
assay-readout: LEUKOCYTE COUNT (x10E3/uL)

smiles-repr: CN1CCC(=C2c3ccccc3C=Cc3ccccc32)CC1
val: 10.64
--
smiles-repr: C#C[C@]1(O)CC[C@H]2[C@@H]3CCc4cc(OC)ccc4[C@H]3CC[C@@]21C
val: 13.4
--
smiles-repr: CC[C@@H](CO)NCCN[C@@H](CC)CO
val: 11.13
--
smiles-repr: CNC(=C[N+](=O)[O-])NCCSCc1ccc(CN(C)C)o1
val: 13.4

====

Species on record: Rattus norvegicus
experiment-summary: DrugMatrix - Regimen: Daily Repeat
Assay type: toxicity, organism-based, Sprague-Dawley
Parameters: regimen Daily Repeat, gender Male, age 6-8 weeks
condition-info: in vivo, po, 0 mg/kg, 120 h, tissue Blood, route oral GAVAGE, dose level Control, time 5 day, vehicle 100 % WATER

compound: Nc1ccn([C@@H]2CS[C@H](CO)O2)c(=O)n1
units-of-measure: %
MONOCYTE: 1

compound: CC(C)(C)c1ccc(C(=O)CCCN2CCC(OC(c3ccccc3)c3ccccc3)CC2)cc1
units-of-measure: %
MONOCYTE: 2.17

compound: COC(=O)C1=C(C)NC(C)=C(C(=O)OCC(C)C)C1c1ccccc1[N+](=O)[O-] (stereo not drawn)
units-of-measure: %
MONOCYTE: 0.17

====

Entries annotated with measured LYMPHOCYTE
Species on record: Rattus norvegicus
experiment-summary: DrugMatrix - Regimen: Daily Repeat
Format: toxicity, organism-based, Sprague-Dawley
Design: regimen Daily Repeat, gender Male, age 6-8 weeks
condition-info: in vivo, po, 0 mg/kg, 120 h, tissue Blood, route oral GAVAGE, dose level Control, time 5 day, […]
assay-readout: LYMPHOCYTE (%)

compound: CC(=O)Nc1ccc(O)cc1
units-of-measure: %
val: 89.67
--
compound: C[C@]12CC[C@@H]3c4ccc(O)cc4CC[C@H]3[C@@H]1CC[C@@H]2O
units-of-measure: %
val: 91.17
--
compound: COc1ccc2[nH]c([S+]([O-])Cc3ncc(C)c(OC)c3C)nc2c1 (configuration not stated)
units-of-measure: %
val: 90.17
--
compound: CC(C)Cc1ccc(C(C)C(=O)O)cc1 (configuration not stated)
units-of-measure: %
val: 90.33
--
compound: O=NN(CCCl)C(=O)NCCCl
units-of-measure: %
val: 89.67
--
compound: Cc1cccc(Nc2ccncc2S(=O)(=O)NC(=O)NC(C)C)c1 [TORSEMIDE]
units-of-measure: %
val: 91.17
--
compound: COCCOC(=O)C1=C(C)NC(C)=C(C(=O)OC(C)C)C1c1cccc([N+](=O)[O-])c1 (configuration not stated)
units-of-measure: %
val: 88.67

====

Entries annotated with measured CREATININE
Species on record: Rattus norvegicus
experiment-summary: DrugMatrix - Regimen: Daily Repeat
Type: toxicity, organism-based, Sprague-Dawley
Design: regimen Daily Repeat, gender Male, age 6-8 weeks
condition-info: in vivo, po, 0 mg/kg, 72 h, tissue Plasma, route oral GAVAGE, dose level Control, time 3 day, […]
assay-readout: CREATININE

molecule: Clc1ccc(Cl)cc1
val: 0.5 mg/dL
--
molecule: O=C(O)Cc1ccccc1Nc1c(Cl)cccc1Cl
val: 0.13 mg/dL
--
molecule: CC/C(=C(/CC)c1ccc(O)cc1)c1ccc(O)cc1
val: 0.16 mg/dL
--
molecule: COc1ccc2[nH]c([S+]([O-])Cc3ncc(C)c(OC)c3C)nc2c1 (stereo not given)
val: 0.17 mg/dL
--
molecule: CCOC(=O)C1=C(C)NC(C)=C(C(=O)OC)C1c1cccc([N+](=O)[O-])c1 (stereo not given)
val: 0.16 mg/dL

====

Species on record: Rattus norvegicus
experiment-summary: DrugMatrix - Regimen: Daily Repeat
Format: toxicity, organism-based, Sprague-Dawley
Parameters: regimen Daily Repeat, gender Male, age 6-8 weeks
condition-info: in vivo, po, 0 mg/kg, 72 h, tissue Plasma, route oral GAVAGE, dose level Control, time 3 day, vehicle .5 % CMC
Entries annotated with measured TOTAL BILIRUBIN
assay-readout: TOTAL BILIRUBIN (mg/dL)

molecule: OC(CCN1CCCCC1)(c1ccccc1)C1CCCCC1 (stereo unspecified) [TRIHEXYPHENIDYL]
val: 0.2
--
molecule: CC(=O)CC(c1ccccc1)c1c(O)c2ccccc2oc1=O (stereo unspecified) [WARFARIN]
val: 0.22
--
molecule: C#C[C@]1(O)CC[C@H]2[C@@H]3CCc4cc(OC)ccc4[C@H]3CC[C@@]21C [MESTRANOL]
val: 0.18
--
molecule: CN1C(=O)COc2c(C(=O)NC3CN4CCC3CC4)cc(Cl)cc21 (stereo unspecified) [AZASETRON]
val: 0.18
--
molecule: O=[N+]([O-])c1ccccc1 [NITROBENZENE]
val: 0.42
--
molecule: N=C(N)NC(=O)c1nc(Cl)c(N)nc1N [AMILORIDE]
val: 0.4

====

Organism: Rattus norvegicus
experiment-summary: DrugMatrix - Regimen: Daily Repeat
Type: toxicity, organism-based, Sprague-Dawley
Design: regimen Daily Repeat, gender Male, age 6-8 weeks
condition-info: in vivo, po, 0 mg/kg, 72 h, tissue Plasma, route oral GAVAGE, dose level Control, time 3 day, […]
Entries annotated with measured CARBON DIOXIDE

molecule: COCCOC(=O)C1=C(C)NC(C)=C(C(=O)OC(C)C)C1c1cccc([N+](=O)[O-])c1 (stereo not given)
CARBON DIOXIDE: 34.17 mmol/L

molecule: CC(C)Cc1ccc(C(C)C(=O)O)cc1 (stereo not given)
CARBON DIOXIDE: 36 mmol/L

molecule: Clc1ccc(Cl)cc1
CARBON DIOXIDE: 41.67 mmol/L

molecule: CC(C)(Oc1ccc(C2CCCc3ccccc32)cc1)C(=O)O (stereo not given)
CARBON DIOXIDE: 27.33 mmol/L

molecule: CCCCCCCCc1ccc(O)cc1
CARBON DIOXIDE: 29.33 mmol/L

====

Species on record: Rattus norvegicus
experiment-summary: DrugMatrix - Regimen: Daily Repeat
Type: toxicity, organism-based, Sprague-Dawley
Design: regimen Daily Repeat, gender Male, age 6-8 weeks
condition-info: in vivo, po, 0 mg/kg, 72 h, tissue Plasma, route oral GAVAGE, dose level Control, time 3 day, […]
assay-readout: TOTAL PROTEIN (G/DL)

molecule: COc1ccc2[nH]c([S+]([O-])Cc3ncc(C)c(OC)c3C)nc2c1 (centres undefined)
units-of-measure: G/DL
val: 5.67
//
molecule: CC(=O)Nc1cccc(O)c1
units-of-measure: G/DL
val: 5.68
//
molecule: CC(C)(Oc1ccc(C2CCCc3ccccc32)cc1)C(=O)O (centres undefined)
units-of-measure: G/DL
val: 5.87
//
molecule: C[C@]12CC[C@@H]3c4ccc(O)cc4CC[C@H]3[C@@H]1CC[C@@H]2O
units-of-measure: G/DL
val: 5.77
//
molecule: Cc1cccc(Nc2ccncc2S(=O)(=O)NC(=O)NC(C)C)c1 [TORSEMIDE]
units-of-measure: G/DL
val: 5.77
//
molecule: CC(C)Cc1ccc(C(C)C(=O)O)cc1 (centres undefined)
units-of-measure: G/DL
val: 5.8
//
molecule: COCCOC(=O)C1=C(C)NC(C)=C(C(=O)OC(C)C)C1c1cccc([N+](=O)[O-])c1 (centres undefined)
units-of-measure: G/DL
val: 5.77
//
molecule: S=C=Nc1cccc2ccccc12 [1-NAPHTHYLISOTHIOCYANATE]
units-of-measure: G/DL
val: 5.95
//
molecule: CCOC(=O)C(C)(C)Oc1ccc(Cl)cc1 [CLOFIBRATE]
units-of-measure: G/DL
val: 5.78
//
molecule: CC(=O)Nc1ccc(O)cc1
units-of-measure: G/DL
val: 5.8
//
molecule: CCCCCCCCc1ccc(O)cc1
units-of-measure: G/DL
val: 5.7
//
molecule: CC/C(=C(/CC)c1ccc(O)cc1)c1ccc(O)cc1
units-of-measure: G/DL
val: 5.63
//
molecule: C[C@H]1O[C@@H](O[C@H]2[C@@H](O)C[C@H](O[C@H]3[C@@H](O)C[C@H](O[C@H]4CC[C@@]5(C)[C@H](CC[C@@H]6[C@@H]5CC[C@]5(C)[C@@H](C7=CC(=O)OC7)CC[C@]65O)C4)O[C@@H]3C)O[C@@H]2C)C[C@H](O)[C@@H]1O
units-of-measure: G/DL
val: 5.43
//
molecule: Clc1ccc(Cl)cc1
units-of-measure: G/DL
val: 6.7

====

Entries annotated with measured CREATININE
Species: Rattus norvegicus
experiment-summary: DrugMatrix - Regimen: Daily Repeat
Assay type: toxicity, organism-based, Sprague-Dawley
Design: regimen Daily Repeat, gender Male, age 6-8 weeks
condition-info: in vivo, po, 1500 mg/kg, 120 h, tissue Plasma, route oral GAVAGE, dose level High, time 5 day, vehicle .5 % CMC

compound: O=C(N[C@H](CO)[C@H](O)c1ccc([N+](=O)[O-])cc1)C(Cl)Cl
CREATININE [mg/dL]: 0.2
//
compound: Cc1cc(=O)n(-c2ccccc2)n1C [ANTIPYRINE]
CREATININE [mg/dL]: 0.24
//
compound: C[C@]1(Cn2ccnn2)[C@H](C(=O)O)N2C(=O)C[C@H]2S1(=O)=O
CREATININE [mg/dL]: 0.22
//
compound: CNC(=C[N+](=O)[O-])NCCSCc1ccc(CN(C)C)o1
CREATININE [mg/dL]: 0.23
